# Experimental details: soluble fraction after stress (log2 fold change); higher = more stays soluble; pooled small domains, quantitative proteomics;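 note: 20 min heating vs room temperature control held 20 min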
# Condition parameters: stress: 75 degC
Classify by soluble fraction (log2). Ranges: c1: < -2; c2: ≥ -2 and < 0.01; c3: ≥ 0.01

Q: Form: Item = HMQLTVAVLIKNISKGQVISQGFLGFEARPERQIRGAYTNISEVLGRKAKSNIAVGTILKARHLDT ; Class = ?
A: c1

Q: Form: Item = HMRDTLSKQLLTEEMVLQFIREMREHDPGIGGEKLHAMYLGRFGRDYEYMVGRDKMEMIIAENNLNVR ; Class = ?
A: c2

Q: Form: Item = HMRSLVDRSVQAVTDHIRENALRVGDSLPGEAYFATSLGVSRAVMREAFGALAALRVIDVGNGRKPRVGAI ; Class = ?
A: c2

Q: Form: Item = HMDFDLIAIFEEQFARALSPIEINIIKEWKNSNYSDDMIVKALKEAVKSQVFNFRYIERILINWSQNG ; Class = ?
A: c2

Q: Form: Item = HMDRKFFYEDQYQDYLGEELKVSFFDTDNKKTVRGTLSEVTPHGIKINLEQETQEIPFSSIIQANLI ; Class = ?
A: c3

Q: Form: Item = HMTTHEQVAILRRELNGLVGAWHHRTGQAHGVTHSKLRKELGGPPAAVASAAQLSARIEKIRQWAT ; Class = ?
A: c2

Q: Form: Item = HMGRGSEDEQMRGLAVILAEQKQIMQTLGVENEVVKPEQYINTLKRMAELNGFKDTDQFFSIPQ ; Class = ?
A: c3

Q: Form: Item = HMKTMAVYPVGTRVLTSDGEIGVVEKQNSEAPERPVIKILKGADGHDYEKPDFKDLMKILTLFIVDTI ; Class = ?
A: c3

Q: Form: Item = HMQELNDQQRLAILNEWNNRATNPPSLLELVRVAFPDAEGADGRSWHGKKVKEFLSTRQIKARAS ; Class = ?
A: c3

Q: Form: Item = HMGIFAQTTKWRDIYTVKKKDTIFGIANKYGLSLPELMEANPEMKQEGYMLQKGTTLFIPFASD ; Class = ?
A: c2

Q: Form: Item = HMATPEINNLGRLRNAINQSNVNWHQIIKRLQNEYPNNWRQILIAIDRHDLLFRYDVENYIKYG ; Class = ?
A: c1

Q: Form: Item = HMKNSIKLDNFVGMSYDEVISNKEYDFNFVSAFEKTSDYEAGTIIGQTPAAEERVMVGTTVTLTVAQP ; Class = ?
A: c3

Q: Form: Item = HMTELPLTPRSKRILEMSALEARRLNHSYIGTEHLLMAIIRDGDGVAAKILESLGVNLPNFYTDTVRSIE ; Class = ?
A: c3

Q: Form: Item = HMKKRDAEIMLQREFKLTEAIAMVRDRDIQELLPIALYFKVNINQPTAEIRYNLLNIAKSKTQEFIEAFD ; Class = ?
A: c1

Q: Form: Item = HMSSFRDISGTVYVKASAANLRSEPNTSSLIVDTLYYGASLQRISTNDIWTKVKTGNGQIGFMDNSLFQT ; Class = ?
A: c1

----------
# Experimental details: soluble fraction after stress (log2 fold change); higher = more stays soluble; pooled small domains, quantitative proteomics
# Condition parameters: stress: 75 degC
Record form. Attribute: soluble fraction (log2). Fill in for each entry.

Q: Supply reported soluble fraction (log2) belonging to this sequence: HMSAPGYRAVYPGMLESERQTAYELLSSSGFDVKINTSSGELEVTTDRYHEARMVMASQNIPK
A: -0.137

Q: Supply reported soluble fraction (log2) belonging to this sequence: HMGTELSYSEFLNKVEAGEVTNVTIRGPEITFQTGNSSYTTYAPDDPKLIEHLTAKGVAIKAGP
A: 0.608

Q: Supply reported soluble fraction (log2) belonging to this sequence: HMSEPRYRQLATILAQEIRSNHSAGDQLPSEQALAKRFEVNRHTVRRAVDELVAAGMVTRHQGWGTQVV
A: -0.158

Q: Supply reported soluble fraction (log2) belonging to this sequence: HMIRMPNLIGLSVRSAEQQLVIAGLKKGIVHQVNDPRLKEVIDMQALGHKITAGSSIPKGTEVDLYIGNGT
A: -0.944
